Tested on: MCF‐10A human breast epithelial cells
measurement_description: MTT cell viability assay, MCF-10A
Assay type: cell-based
run_parameters: Homo sapiens, MCF-10A, 72 h, non-tumorigenic cells
value_kind: pIC50
Remember the convention: pIC50 equals -log10 of concentration in molar.

Data request: Find pIC50 (MCF‐10A human breast epithelial cells) for the entry `O=C(Nn1c(-c2ccccc2)n[nH]c1=O)c1cc2c(ccc3ccccc32)oc1=O`
Data returned: 4.20

Data request: Form entry - test system: MCF‐10A human breast epithelial cells; read-out: pIC50; molecule: `Cc1ccc(Cc2n[nH]c(=O)n2NC(=O)c2cc3c(ccc4ccccc43)oc2=O)cc1`
Data returned: 4.39

Data request: Could you share what pIC50 was measured for `O=C(Nn1c(Cc2ccccc2)n[nH]c1=O)c1cc2c(ccc3ccccc32)oc1=O` , tested on MCF‐10A human breast epithelial cells?
Data returned: 4.42

Data request: Tell me reported pIC50 for `CCc1n[nH]c(=O)n1NC(=O)c1cc2c(ccc3ccccc32)oc1=O` , tested with MCF‐10A human breast epithelial cells.
Data returned: 4.60

Data request: Missing value: pIC50, MCF‐10A human breast epithelial cells, entry `O=C(Nn1c(Cc2ccc(Cl)cc2)n[nH]c1=O)c1cc2c(ccc3ccccc32)oc1=O` . Fill in?
Data returned: 4.21

Data request: // map `Cc1n[nH]c(=O)n1NC(=O)c1cc2c(ccc3ccccc32)oc1=O` to recorded pIC50 (system: MCF‐10A human breast epithelial cells)
Data returned: 4.90
